All figures here come from patent US12679822B2.

Molecular target: BaF3 cell lines stably transfected with kinase EGFR L858R (Homo sapiens, UniProt P00533, L858R, cells depend on it)
Sequence (P00533 whole entry L858R): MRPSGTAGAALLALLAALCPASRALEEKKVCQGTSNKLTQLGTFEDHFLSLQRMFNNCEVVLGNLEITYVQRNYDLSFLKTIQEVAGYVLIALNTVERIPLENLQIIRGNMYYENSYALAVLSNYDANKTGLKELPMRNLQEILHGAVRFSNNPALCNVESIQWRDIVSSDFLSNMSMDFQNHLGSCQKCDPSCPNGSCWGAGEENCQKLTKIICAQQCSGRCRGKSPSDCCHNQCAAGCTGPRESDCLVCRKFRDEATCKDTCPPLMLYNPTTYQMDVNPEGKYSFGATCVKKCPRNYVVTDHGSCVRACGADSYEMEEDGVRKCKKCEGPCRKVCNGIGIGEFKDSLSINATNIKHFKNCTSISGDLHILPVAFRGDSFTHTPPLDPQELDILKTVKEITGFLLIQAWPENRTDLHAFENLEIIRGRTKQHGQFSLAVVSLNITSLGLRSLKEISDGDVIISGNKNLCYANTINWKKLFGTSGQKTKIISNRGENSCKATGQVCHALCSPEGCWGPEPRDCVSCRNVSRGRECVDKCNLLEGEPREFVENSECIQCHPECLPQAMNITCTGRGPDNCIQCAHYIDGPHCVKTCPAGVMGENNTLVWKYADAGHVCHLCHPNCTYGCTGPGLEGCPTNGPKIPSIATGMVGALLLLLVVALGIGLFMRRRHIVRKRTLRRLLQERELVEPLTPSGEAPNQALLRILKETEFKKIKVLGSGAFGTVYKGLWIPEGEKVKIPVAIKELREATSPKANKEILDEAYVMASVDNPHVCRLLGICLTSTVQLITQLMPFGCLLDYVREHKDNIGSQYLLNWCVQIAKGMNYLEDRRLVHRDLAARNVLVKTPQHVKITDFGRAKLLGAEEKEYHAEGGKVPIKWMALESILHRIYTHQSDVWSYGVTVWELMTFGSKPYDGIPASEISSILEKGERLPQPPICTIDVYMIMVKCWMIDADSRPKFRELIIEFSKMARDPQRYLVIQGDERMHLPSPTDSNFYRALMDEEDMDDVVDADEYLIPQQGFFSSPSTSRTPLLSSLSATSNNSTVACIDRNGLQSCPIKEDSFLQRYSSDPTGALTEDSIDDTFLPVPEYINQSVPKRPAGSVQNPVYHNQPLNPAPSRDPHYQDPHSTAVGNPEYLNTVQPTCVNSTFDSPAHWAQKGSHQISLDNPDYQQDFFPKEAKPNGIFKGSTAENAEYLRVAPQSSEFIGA
Assay: Growth inhibition of BaF3 cell line stably transfected with kinase EGFR L858R (MTS)
Type: cell-based
Details: 48 h, read-out: growth inhibitory activity IC50, L858R
MEASUREMENT KIND: GI50

Specify measured GI50 for C=C(C)c1cnc(Nc2cc(C3CC3)c(N3CCC(N4CCN(C)CC4)CC3)cc2OC)nc1Nc1ccc2nccnc2c1N(C)S(C)(=O)=O .
≤ 50 nM

Specify measured GI50 for C=Cc1cnc(Nc2ccc(N3CCC(N4CCN(C)CC4)CC3)cc2OC)nc1Nc1ccc2nccnc2c1N(C)S(C)(=O)=O .
500 to 2500 nM

Specify measured GI50 for C=Cc1cnc(Nc2cc(C)c(N3CCC(N4CCN(C)CC4)CC3)cc2OC)nc1Nc1ccc2nccnc2c1N(C)S(C)(=O)=O .
≤ 50 nM

Specify measured GI50 for C=Cc1cnc(Nc2cn(CC)nc2C)nc1Nc1ccc2nccnc2c1N(C)S(C)(=O)=O [II-68] .
50 to 500 nM

Specify measured GI50 for C=Cc1cnc(Nc2cc(CC)c(NCCO)cc2OC)nc1Nc1ccc2nccnc2c1N(C)S(C)(=O)=O .
500 to 2500 nM

Specify measured GI50 for CCc1cc(Nc2ncc(C=C(C)C)c(Nc3ccc4nccnc4c3P(C)(C)=O)n2)c(OC)cc1N1CCC(N2CCN(C)CC2)CC1 .
≤ 50 nM

Specify measured GI50 for C=Cc1cnc(Nc2cc(CC)c(N3CCC(C(C)C)C3)cc2OC)nc1Nc1ccc2nccnc2c1P(C)(C)=O (centres unmarked) .
≤ 50 nM

Specify measured GI50 for C=Cc1cnc(Nc2ccc(N3CCC(N4CCN(C)CC4)CC3)c(F)c2F)nc1Nc1ccc2nccnc2c1S(=O)(=O)NC .
50 to 500 nM

Specify measured GI50 for C=Cc1cnc(Nc2cc(CC)c(NCCN(C)C)cc2OC)nc1Nc1ccc2nccnc2c1N(C)S(C)(=O)=O .
500 to 2500 nM

Specify measured GI50 for C=C(C)c1cnc(Nc2cn[nH]c2)nc1Nc1ccc2nccnc2c1N(C)S(C)(=O)=O .
50 to 500 nM

Specify measured GI50 for C=C(C)c1cnc(Nc2ccc(N3CCC(N4CCN(C)CC4)CC3)c(CC)c2)nc1Nc1ccc2nccnc2c1N(C)S(C)(=O)=O .
≤ 50 nM

* * *

Please go through the items and note down their GI50.
Biological target: BaF3 cell lines stably transfected with kinase EGFR L858R (Homo sapiens, UniProt P00533, L858R, cells depend on it)
Experiment: Growth inhibition of BaF3 cell line stably transfected with kinase EGFR L858R (MTS)
Type: cell-based
Conditions: 48 h, read-out: growth inhibitory activity IC50, L858R

Specify measured GI50 for C=Cc1cnc(Nc2cc(CC)c(N3CCC(N(C)C)CC3)cc2OC)nc1Nc1ccc2nccnc2c1S(=O)(=O)NC [IV-13] .
50 to 500 nM

Specify measured GI50 for C=Cc1cnc(Nc2cc(CC)c(N3CCC(N4CCN(C)CC4)CC3)cc2OC)nc1Nc1ccc2nccnc2c1N(C)S(=O)(=O)C1CC1 [II-11] .
50 to 500 nM

Specify measured GI50 for C=Cc1cnc(Nc2cc(C)c(N3CCC(N4CCN(C)CC4)CC3)cc2OC)nc1Nc1ccc2nccnc2c1S(=O)(=O)NC [IV-2] .
50 to 500 nM

Specify measured GI50 for C=Cc1cnc(Nc2cc(CC)c(N3CCC(N(C)C)C3)cc2OC)nc1Nc1ccc2nccnc2c1S(=O)(=O)NC (stereo not drawn) [IV-14] .
50 to 500 nM

Specify measured GI50 for C=Cc1cnc(Nc2cc(C(C)C)c(N3CCC(N4CCN(C)CC4)CC3)cc2OC)nc1Nc1ccc2nccnc2c1S(=O)(=O)NC [IV-6] .
500 to 2500 nM

Specify measured GI50 for C=Cc1cnc(Nc2cc(Cc3ccccc3)c(N3CCC(N4CCN(C)CC4)CC3)cc2OC)nc1Nc1ccc2nccnc2c1N(C)S(C)(=O)=O [II-19] .
500 to 2500 nM

Specify measured GI50 for C=Cc1cnc(Nc2ccc(N3CCC(N4CCN(C)CC4)CC3)c(CC)c2)nc1Nc1ccc2nccnc2c1NS(C)(=O)=O [II-38] .
≤ 50 nM

Specify measured GI50 for C=Cc1cnc(Nc2cccc(C3CCN(C)CC3)c2)nc1Nc1ccc2nccnc2c1P(C)(C)=O [Compound I-22] .
50 to 500 nM

Specify measured GI50 for CCc1cc(Nc2ncc(/C=C/C3CC3)c(Nc3ccc4nccnc4c3P(C)(C)=O)n2)c(OC)cc1N1CCC(N2CCN(C)CC2)CC1 [Compound I-11] .
≤ 50 nM

Specify measured GI50 for C=Cc1cnc(Nc2cc(CC)c(N3CCC(N(C)C)C3)cc2OC)nc1Nc1ccc2nccnc2c1N(C)S(C)(=O)=O (stereo not drawn) [II-3] .
≤ 50 nM

Specify measured GI50 for C=C(C)c1cnc(Nc2ccc(N3CCC(N4CCN(C)CC4)CC3)nc2OC)nc1Nc1ccc2nccnc2c1P(C)(C)=O [Compound I-19] .
50 to 500 nM

Specify measured GI50 for C=Cc1cnc(Nc2cc(CC)c(N3CCC(N4CCN(C)CC4)CC3)nc2OC)nc1Nc1ccc2nccnc2c1N(C)S(C)(=O)=O [II-5] .
50 to 500 nM

Specify measured GI50 for C=Cc1cnc(Nc2cc(C)c(N3CCC(N4CCN(C)CC4)CC3)cc2OC)nc1Nc1ccc2nccnc2c1P(C)(C)=O [Compound I-9] .
≤ 50 nM

Specify measured GI50 for CCc1cc(Nc2ncc(C3=CCCC3)c(Nc3ccc4nccnc4c3P(C)(C)=O)n2)c(OC)cc1N1CCC(N2CCN(C)CC2)CC1 [Compound I-13] .
≤ 50 nM

Specify measured GI50 for C=Cc1cnc(Nc2cc3c(cc2F)CCN(C)C3)nc1Nc1ccc2nccnc2c1P(C)(C)=O [Compound I-23] .
50 to 500 nM
